These measurements were taken from PubChem BioAssay AID1159580.

protocol text: chemical genetic growth profiling, strain panel (AID 1159580);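 note: tested at 20 µM; growth read once vehicle control cultures reached saturation at 30 °C; 1 = growth at the plate median or of vehicle wells; lower values mean less growth of the strain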
setup conditions: S. cerevisiae deletion strains, growth OD, locus YPR141C, strain kar3, active compounds read low
About 2,000 (36%) of roughly 5,500 compounds were called active. About 18% were inconclusive and are not listed. This is one part of the list.
# key: entry, value: normalized growth
Give the figure by itself; no unit, no explanation.

Observe how each entry below is paired with its result.
compound: CC(=O)O[C@@](C)(CCC=C(C)C)C1CC=C(C)CC1 (stereo partly specified)
numeric readout: 0.997
//
compound: CCC(C(=O)O)c1ccccc1 (stereo unspecified)
numeric readout: 0.976
//
compound: COc1ccc(-c2coc3c(O)c(OC)ccc3c2=O)cc1
numeric readout: 0.932
//
compound: C=C1CC[C@H](O)C/C1=C/C=C1\CCC[C@]2(C)C([C@H](C)/C=C/[C@H](C)C(C)C)CC[C@@H]12 (stereo partly specified)
numeric readout: 0.981
//
compound: COc1ccc(-c2coc3c(OC)c(OC)cc(O)c3c2=O)cc1
numeric readout: 0.979

Consider the record given below.
Problem: Entry `Cn1cc[nH]c1=S` : reported normalized growth = ?
Solution: 0.977

* * *

protocol text: chemical genetic growth profiling, strain panel (AID 1159580);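 note: tested at 20 µM; growth read once vehicle control cultures reached saturation at 30 °C; 1 = growth at the plate median or of vehicle wells; lower values mean less growth of the strain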
setup conditions: S. cerevisiae deletion strains, growth OD, locus YNL209W, strain ssb2
Among all 5,500 compounds or so, about 2,000 (36%) were called active. Not shown: some 18% with an inconclusive outcome. Cut-off read from the data, not from the text of the source: active = normalized growth mostly below about 0.91 (no sharp cut-off); inconclusive = no clear call, values can overlap the other calls; inactive = mostly above about 0.92. This is one part of the list.
Could you please pick one outcome from this set? active, inactive

The following compounds have reported results that may help.
compound: CNc1ccccc1C(=O)N1CCc2c([nH]c3ccccc23)C1=O
answer label: inactive
//
compound: COc1ccc2cc1Oc1ccc(cc1)C[C@H]1c3c(cc4c(c3Oc3cc5c(cc3OC)CCN(C)[C@@H]5C2)OCO4)CCN1C
answer label: inactive
//
compound: CC1(C)C2CC[C@]3(C)C(C(=O)C=C4[C@@H]5C[C@@](C)(C(=O)O)CC[C@]5(C)CC[C@]43C)[C@@]2(C)CC[C@@H]1O (stereo partly drawn)
answer label: inactive

Problem: Give the logged outcome of this assay for the following compound: `CN=C(NC#N)NCCSCc1nc[nH]c1C`
Solution: inactive

Problem: Hello, I am checking results. What call was entered for CC(=O)O[C@H]1C(=O)[C@@]2(C)C([C@H](OC(=O)c3ccccc3)[C@]3(O)C[C@H](OC(=O)[C@H](O)[C@@H](NC(=O)c4ccccc4)c4ccccc4)C(C)=C1C3(C)C)[C@]1(OC(C)=O)CO[C@@H]1C[C@@H]2O (stereo partly drawn) ?
Solution: inactive

Problem: Record lookup: outcome of this test for `CCSC(=N)N` ?
Solution: inactive

* * *

Listing of recorded normalized growth by entry.
protocol text: chemical genetic growth profiling, strain panel (AID 1159580);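 note: tested at 20 µM; growth read once vehicle control cultures reached saturation at 30 °C; 1 = growth at the plate median or of vehicle wells; lower values mean less growth of the strain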
setup conditions: S. cerevisiae deletion strains, growth OD, locus YPR141C, strain kar3, active compounds read low
Among all 5,500 compounds or so, about 2,000 (36%) were called active. Roughly 18% stayed inconclusive and do not appear here. This is one part of the list.
Answer with a number only.

molecule: CN1C2CC3C[C@H]1C(O3)C2O (stereo partly specified)
normalized growth: 1.04
//
molecule: COC(=O)COc1cc(Cl)c(Cl)cc1Cl
normalized growth: 0.948

Problem: Param item = CC1(C)C2CC[C@]3(C)C(C(=O)C=C4[C@@H]5C[C@@](C)(C(=O)O)CC[C@]5(C)CC[C@]43C)[C@@]2(C)CC[C@@H]1OC(=O)CCC(=O)O (stereo partly specified) ; retrieve measured normalized growth.
Solution: 0.999

Problem: What does the data say about its normalized growth? Entry: OCC(O)Cc1ccc2c(c1)OCO2 (stereo unspecified)
Solution: 0.997

Problem: Please look up its normalized growth: CC(=O)[C@H]1CCC2C3C[C@H](C)C4=CC(=O)CC[C@]4(C)C3[C@@H](O)C[C@@]21C (stereo partly specified)
Solution: 0.961

Problem: Fill in the blank: the reported normalized growth of `CC(=O)OCC(CCn1cnc2cnc(N)nc21)COC(C)=O` is ____.
Solution: 0.943
